tested on: Mus musculus; test: Toxicity in ob/ob mouse assessed as change in body weight at 8.4 uM/kg administered via oral gavage daily for 4 days measured on day 5 relative to control; assay type: organism-based; settings: in vivo, 96 h, 8.4 µmol/kg
Outcome: label 1 for Activity of at least 80%; label 0 for anything lower.

Is the recorded value of Activity equal to or greater than 80% for this compound? CCOC(=O)C(Cc1ccc(OCCn2c(=O)sc3cc(C(=O)/C=C/c4cc(O)cc(O)c4)ccc32)cc1)OCC(F)(F)F (stereo unspecified)
label 0

Does the compound CCOC(=O)C(Cc1ccc(OCCn2c(=O)sc3cc(/C=C/c4cc(OC)cc(OC)c4)ccc32)cc1)OCC(F)(F)F (stereo unspecified) have recorded Activity that is 80% or more?
label 0

Quick check, Activity >= 80%? CCOC(=O)C(Cc1ccc(OCCn2c(=O)sc3cc(/C=C/c4cc(O)cc(O)c4)ccc32)cc1)OCC(F)(F)F (stereo unspecified)
label 0

Does the compound CCOC(=O)C(Cc1ccc(OCCn2c(=O)sc3cc(/C=C/c4cc(O)cc(O)c4)ccc32)cc1)OCC (stereo unspecified) have recorded Activity that is 80% or more?
label 0

Activity >= 80% for CCOC(=O)C(Cc1ccc(OCCn2c(=O)sc3cc(C(=O)/C=C/c4cc(OC)cc(OC)c4)ccc32)cc1)OCC(F)(F)F (stereo unspecified) ?
label 1

Determine whether measured Activity meets or exceeds 80% for CCOC(=O)C(Cc1ccc(OCCn2c(=O)sc3cc(C(=O)/C=C/c4cc(O)cc(O)c4)ccc32)cc1)OCC (stereo unspecified)
label 1

Has CCOC(Cc1ccc(OCCn2c(=O)sc3cc(C(=O)/C=C/c4cc(OC)cc(OC)c4)ccc32)cc1)C(=O)O (stereo unspecified) a recorded Activity greater than or equal to 80%?
label 1

Does O=C(O)C(Cc1ccc(OCCn2c(=O)sc3cc(/C=C/c4cc(O)cc(O)c4)ccc32)cc1)OCC(F)(F)F (stereo unspecified) have a reported Activity of at least 80%?
label 0

Check if Activity >= 80% (inclusive). Item: CCOC(Cc1ccc(OCCn2c(=O)sc3cc(/C=C/c4cc(OC)cc(OC)c4)ccc32)cc1)C(=O)NC (stereo unspecified)
label 1

Hi, just wondering whether CCOC(Cc1ccc(OCCn2c(=O)sc3cc(/C=C/c4cc(OC)cc(OC)c4)ccc32)cc1)C(N)=O (stereo unspecified) shows Activity of 80% or higher.
label 1

Textbook exercise: given the entry CCOC(Cc1ccc(OCCn2c(=O)sc3cc(/C=C/c4cc(OC)cc(OC)c4)ccc32)cc1)C(=O)O (stereo unspecified) , state whether its Activity is greater than or equal to 80%.
label 1

Identify whether the reported Activity of the following compound is 80% or greater: CCOC(Cc1ccc(OCCn2c(=O)sc3cc(/C=C/c4cc(O)cc(O)c4)ccc32)cc1)C(=O)O (stereo unspecified)
label 1

State whether the measured Activity reaches 80%, counting equality as reaching it, for CCOC(=O)C(Cc1ccc(OCCn2c(=O)sc3cc(C(=O)/C=C/c4cc(OC)cc(OC)c4)ccc32)cc1)OCC (stereo unspecified)
label 1

# check: Activity of COc1cc(/C=C/C(=O)c2ccc3c(c2)sc(=O)n3CCOc2ccc(CC(OCC(F)(F)F)C(=O)O)cc2)cc(OC)c1 (stereo unspecified) is greater than or equal to 80%
label 1

====

Task for the reader: assign each of the following compounds its reported Activity.
system: Mus musculus; experiment: Anti-diabetic activity in ob/ob mouse assessed as change in serum glucose levels at 8.4 uM/kg administered via oral gavage daily for 4 days measured on day 5 relative to control; type: functional
Numbers only here, please. The scale is %.

Give me measured Activity, please, for this compound: CCOC(=O)C(Cc1ccc(OCCn2c(=O)sc3cc(/C=C/c4cc(O)cc(O)c4)ccc32)cc1)OCC(F)(F)F (stereo unspecified)
-40

Give a short answer stating reported Activity for CCOC(Cc1ccc(OCCn2c(=O)sc3cc(C(=O)/C=C/c4cc(OC)cc(OC)c4)ccc32)cc1)C(=O)O (stereo unspecified) .
-27

Given CCOC(=O)C(Cc1ccc(OCCn2c(=O)sc3cc(C(=O)/C=C/c4cc(O)cc(O)c4)ccc32)cc1)OCC (stereo unspecified) , respond with its Activity.
-30

Recall and state the measured Activity for CCOC(Cc1ccc(OCCn2c(=O)sc3cc(/C=C/c4cc(O)cc(O)c4)ccc32)cc1)C(=O)O (stereo unspecified) .
-45

Given COc1cc(/C=C/C(=O)c2ccc3c(c2)sc(=O)n3CCOc2ccc(CC(OCC(F)(F)F)C(=O)O)cc2)cc(OC)c1 (stereo unspecified) , respond with its Activity.
-14

Report measured Activity; entry is CCOC(=O)C(Cc1ccc(OCCn2c(=O)sc3cc(/C=C/c4cc(OC)cc(OC)c4)ccc32)cc1)OCC (stereo unspecified)
-36

Consider the compound CCOC(Cc1ccc(OCCn2c(=O)sc3cc(/C=C/c4cc(OC)cc(OC)c4)ccc32)cc1)C(=O)O (stereo unspecified) and give its recorded Activity.
-42

Let me know recorded Activity for CCOC(=O)C(Cc1ccc(OCCn2c(=O)sc3cc(C(=O)/C=C/c4cc(OC)cc(OC)c4)ccc32)cc1)OCC(F)(F)F (stereo unspecified) , thanks.
2

Please look at this compound and report its Activity: COc1cc(/C=C/c2ccc3c(c2)sc(=O)n3CCOc2ccc(CC(OCC(F)(F)F)C(=O)O)cc2)cc(OC)c1 (stereo unspecified)
-36

Please report the measured Activity for CCOC(=O)C(Cc1ccc(OCCn2c(=O)sc3cc(/C=C/c4cc(O)cc(O)c4)ccc32)cc1)OCC (stereo unspecified)
-35

Look up Activity of CCOC(Cc1ccc(OCCn2c(=O)sc3cc(/C=C/c4cc(OC)cc(OC)c4)ccc32)cc1)C(N)=O (stereo unspecified) and report it.
-27

Annotate the compound CCOC(=O)C(Cc1ccc(OCCn2c(=O)sc3cc(C(=O)/C=C/c4cc(OC)cc(OC)c4)ccc32)cc1)OCC (stereo unspecified) with its measured Activity.
-25

# return recorded Activity for entry O=C(O)C(Cc1ccc(OCCn2c(=O)sc3cc(/C=C/c4cc(O)cc(O)c4)ccc32)cc1)OCC(F)(F)F (stereo unspecified)
-40

Please look at this compound and report its Activity: CCOC(=O)C(Cc1ccc(OCCn2c(=O)sc3cc(C(=O)/C=C/c4cc(O)cc(O)c4)ccc32)cc1)OCC(F)(F)F (stereo unspecified)
-5

Look up and state reported Activity for CCOC(=O)C(Cc1ccc(OCCn2c(=O)sc3cc(/C=C/c4cc(OC)cc(OC)c4)ccc32)cc1)OCC(F)(F)F (stereo unspecified)
-11

Answer with reported Activity of CCOC(Cc1ccc(OCCn2c(=O)sc3cc(/C=C/c4cc(OC)cc(OC)c4)ccc32)cc1)C(=O)NC (stereo unspecified)
-14

====

Target: Peroxisome proliferator-activated receptor gamma (Homo sapiens)
Sequence (P37231 whole entry): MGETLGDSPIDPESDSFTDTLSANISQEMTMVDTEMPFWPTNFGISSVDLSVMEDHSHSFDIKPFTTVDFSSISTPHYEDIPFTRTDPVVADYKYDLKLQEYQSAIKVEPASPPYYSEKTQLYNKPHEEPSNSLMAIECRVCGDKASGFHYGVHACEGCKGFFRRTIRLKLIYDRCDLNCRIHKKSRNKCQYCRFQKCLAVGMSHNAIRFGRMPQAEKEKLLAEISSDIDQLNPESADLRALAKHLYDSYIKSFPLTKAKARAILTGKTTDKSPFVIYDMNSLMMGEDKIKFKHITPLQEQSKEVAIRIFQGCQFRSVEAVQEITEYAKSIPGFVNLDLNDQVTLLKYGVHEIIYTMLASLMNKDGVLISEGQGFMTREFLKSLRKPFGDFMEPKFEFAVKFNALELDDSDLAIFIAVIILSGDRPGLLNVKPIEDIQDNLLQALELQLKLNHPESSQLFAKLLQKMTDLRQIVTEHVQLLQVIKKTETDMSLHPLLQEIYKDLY
Experiment: Transactivation of human Gal4-fused PPARgamma LBD expressed in African green monkey COS7 cells after 24 hrs by luciferase reporter gene assay
Assay type: cell-based
Settings: read-out: EC50
The threshold is 50 nM. Values of EC50 beneath it are tagged label 1; values meeting or exceeding it are tagged label 0.

Please determine if CCOC(=O)C(Cc1ccc(OCCn2c(=O)sc3cc(C(=O)/C=C/c4cc(OC)cc(OC)c4)ccc32)cc1)OCC(F)(F)F (stereo unspecified) is below 50 nM in terms of EC50.
label 0

Quick check: does O=C(O)C(Cc1ccc(OCCn2c(=O)sc3cc(/C=C/c4cc(O)cc(O)c4)ccc32)cc1)OCC(F)(F)F (stereo unspecified) have EC50 under 50 nM?
label 0

Identify whether the compound COc1cc(/C=C/c2ccc3c(c2)sc(=O)n3CCOc2ccc(CC(OCC(F)(F)F)C(=O)O)cc2)cc(OC)c1 (stereo unspecified) records EC50 below 50 nM.
label 1

Dear colleague, could you confirm whether EC50 of CCOC(=O)C(Cc1ccc(OCCn2c(=O)sc3cc(/C=C/c4cc(OC)cc(OC)c4)ccc32)cc1)OCC (stereo unspecified) falls below 50 nM? Thanks.
label 1

Item CCOC(=O)C(Cc1ccc(OCCn2c(=O)sc3cc(/C=C/c4cc(O)cc(O)c4)ccc32)cc1)OCC(F)(F)F (stereo unspecified) : EC50 beneath 50 nM, strictly?
label 0

Bench note: check whether CCOC(Cc1ccc(OCCn2c(=O)sc3cc(/C=C/c4cc(O)cc(O)c4)ccc32)cc1)C(=O)O (stereo unspecified) shows EC50 below 50 nM
label 0

Just wondering, is EC50 of CCOC(=O)C(Cc1ccc(OCCn2c(=O)sc3cc(C(=O)/C=C/c4cc(O)cc(O)c4)ccc32)cc1)OCC(F)(F)F (stereo unspecified) below 50 nM?
label 1

For this compound, is EC50 lower than 50 nM? CCOC(=O)C(Cc1ccc(OCCn2c(=O)sc3cc(C(=O)/C=C/c4cc(OC)cc(OC)c4)ccc32)cc1)OCC (stereo unspecified)
label 1

Regarding CCOC(=O)C(Cc1ccc(OCCn2c(=O)sc3cc(/C=C/c4cc(O)cc(O)c4)ccc32)cc1)OCC (stereo unspecified) , kindly confirm whether its EC50 is beneath 50 nM.
label 1

Find out if reported EC50 for CCOC(Cc1ccc(OCCn2c(=O)sc3cc(C(=O)/C=C/c4cc(OC)cc(OC)c4)ccc32)cc1)C(=O)O (stereo unspecified) is less than 50 nM
label 0

# TODO verify EC50 < 50 nM strictly for this compound: COc1cc(/C=C/C(=O)c2ccc3c(c2)sc(=O)n3CCOc2ccc(CC(OCC(F)(F)F)C(=O)O)cc2)cc(OC)c1 (stereo unspecified)
label 0

Find out if reported EC50 for CCOC(=O)C(Cc1ccc(OCCn2c(=O)sc3cc(C(=O)/C=C/c4cc(O)cc(O)c4)ccc32)cc1)OCC (stereo unspecified) is less than 50 nM
label 1

Strictly below 50 nM: is that where EC50 of CCOC(Cc1ccc(OCCn2c(=O)sc3cc(/C=C/c4cc(OC)cc(OC)c4)ccc32)cc1)C(N)=O (stereo unspecified) sits?
label 1

Lab log: compare recorded EC50 with 50 nM; is it strictly lower for CCOC(Cc1ccc(OCCn2c(=O)sc3cc(/C=C/c4cc(OC)cc(OC)c4)ccc32)cc1)C(=O)NC (stereo unspecified) ?
label 1

Confirm or reject: EC50 of CCOC(Cc1ccc(OCCn2c(=O)sc3cc(/C=C/c4cc(OC)cc(OC)c4)ccc32)cc1)C(=O)O (stereo unspecified) lies strictly below 50 nM
label 1
